// provenance: PubChem BioAssay AID1963449

- Tested on: 596521-263-R-J1-PDC complex spheroid growth;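 further: spheroids exposed to compounds for 7 days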
- Protocol description: Anticancer human tumor 596521-263-R-J1-PDC patient-derived soft tissue sarcoma cell line growth inhibition [Asc]
- Measurement conditions: second compound 0.00949 µM; first compound 0.0316 µM; active compounds read low

# Molecule, viability, T/C [%]
rows = [
    ("CNC(C)C(=O)NC1CN(S(=O)(=O)c2cccc(S(=O)(=O)N3CCC4CCC(C(=O)NC(c5ccccc5)c5ccccc5)N4C(=O)C(NC(=O)C(C)NC)C3)c2)CCC2CCC(C(=O)NC(c3ccccc3)c3ccccc3)N2C1=O (stereo not drawn) + CCN1C(C(=O)NC23CCC(C(=O)O)(CC2)CC3)C(c2cccc(Cl)c2F)C2(C(=O)Nc3cc(Cl)ccc32)C12CCCCC2", 111),
    ("O=C(c1ccc(F)c(F)c1Nc1ccc(I)cc1F)N1CC(O)([C@@H]2CCCCN2)C1 + CCN1C(C(=O)NC23CCC(C(=O)O)(CC2)CC3)C(c2cccc(Cl)c2F)C2(C(=O)Nc3cc(Cl)ccc32)C12CCCCC2", 112),
    ("Cn1ncnc1[C@H]1c2n[nH]c(=O)c3cc(F)cc(c23)N[C@@H]1c1ccc(F)cc1 + CCN1C(C(=O)NC23CCC(C(=O)O)(CC2)CC3)C(c2cccc(Cl)c2F)C2(C(=O)Nc3cc(Cl)ccc32)C12CCCCC2", 88.4),
]
